- Test System: T1, NS1B CTD wt (Influenza B virus (B/Lee/1940), UniProt P03502 141-281)
- T1 sequence: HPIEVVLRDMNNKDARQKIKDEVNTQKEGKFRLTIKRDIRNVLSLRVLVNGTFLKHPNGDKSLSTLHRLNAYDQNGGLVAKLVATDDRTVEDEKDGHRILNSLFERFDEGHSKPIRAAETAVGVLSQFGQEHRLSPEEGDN
- Assay: fluorescence polarization
Kd values by entry
Kindly answer with a numeric value in nM, unit omitted.

• CGCCUGUAGAGGAUGG (ssRNA) [16 minus ssRNA (antisense)] = 580

Proceed to the following item.
Kindly note the recorded Kd for 16-bp dsRNA (dsRNA) RNA 1: CGCCUGUAGAGGAUGG RNA 2: CCAUCCUCUACAGGCG , which is 130

Values from paper PMC5014651
